The molecules listed here are annotated with their EC50.
target.desc: CFTR-mediated chloride transport (Homo sapiens, UniProt P13569)
Sequence (P13569 whole entry, looked up): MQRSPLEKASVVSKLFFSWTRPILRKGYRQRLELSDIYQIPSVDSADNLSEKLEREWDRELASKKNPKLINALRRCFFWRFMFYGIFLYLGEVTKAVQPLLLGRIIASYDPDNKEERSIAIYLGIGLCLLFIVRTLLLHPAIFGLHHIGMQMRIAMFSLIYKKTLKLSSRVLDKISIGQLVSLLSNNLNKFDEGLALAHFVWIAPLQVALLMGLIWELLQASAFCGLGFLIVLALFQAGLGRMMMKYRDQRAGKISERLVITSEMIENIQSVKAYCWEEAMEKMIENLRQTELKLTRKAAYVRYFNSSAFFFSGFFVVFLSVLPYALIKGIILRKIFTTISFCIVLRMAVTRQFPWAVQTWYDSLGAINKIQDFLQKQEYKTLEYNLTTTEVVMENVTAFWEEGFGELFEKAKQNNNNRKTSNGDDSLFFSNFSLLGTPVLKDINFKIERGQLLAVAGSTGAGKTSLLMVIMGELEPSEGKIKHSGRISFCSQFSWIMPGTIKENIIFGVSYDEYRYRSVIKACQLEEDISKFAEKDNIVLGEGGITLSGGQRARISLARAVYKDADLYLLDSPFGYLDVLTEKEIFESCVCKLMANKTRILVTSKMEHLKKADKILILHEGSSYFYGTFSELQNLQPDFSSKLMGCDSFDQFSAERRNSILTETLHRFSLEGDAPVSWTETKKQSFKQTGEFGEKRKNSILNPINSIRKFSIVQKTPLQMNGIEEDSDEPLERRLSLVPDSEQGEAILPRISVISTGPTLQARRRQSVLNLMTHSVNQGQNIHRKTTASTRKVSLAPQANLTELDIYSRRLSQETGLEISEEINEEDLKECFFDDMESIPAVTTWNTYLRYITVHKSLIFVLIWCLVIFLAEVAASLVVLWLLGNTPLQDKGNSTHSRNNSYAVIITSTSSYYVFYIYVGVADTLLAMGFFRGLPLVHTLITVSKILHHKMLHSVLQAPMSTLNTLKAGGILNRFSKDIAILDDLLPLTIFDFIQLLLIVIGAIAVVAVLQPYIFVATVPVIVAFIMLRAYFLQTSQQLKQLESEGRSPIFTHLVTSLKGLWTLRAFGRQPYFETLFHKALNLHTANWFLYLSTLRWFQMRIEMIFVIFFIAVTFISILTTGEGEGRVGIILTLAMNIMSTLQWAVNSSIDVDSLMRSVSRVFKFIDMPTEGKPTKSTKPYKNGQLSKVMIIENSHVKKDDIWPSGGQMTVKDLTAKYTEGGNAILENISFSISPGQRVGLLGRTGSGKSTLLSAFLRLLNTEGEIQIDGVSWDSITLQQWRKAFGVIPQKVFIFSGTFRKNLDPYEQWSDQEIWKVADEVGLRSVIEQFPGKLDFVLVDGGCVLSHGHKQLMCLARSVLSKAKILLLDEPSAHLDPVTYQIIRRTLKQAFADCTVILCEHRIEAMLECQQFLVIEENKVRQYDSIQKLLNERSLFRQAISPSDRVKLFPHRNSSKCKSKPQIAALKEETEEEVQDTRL
run.conditions: enteroid cells incubated with test compound 18-24 hours; acute 10 μM forskolin and 300 nM Compound III

Worked examples, 2 molecules total:
>>> measurement("CC1(C)C[C@@H]2CN1c1nc(-n3ccc(OCCC4C5(CC5)C45CC5)n3)ccc1C(=O)NS(=O)(=O)c1cccc(n1)NCC(F)(F)C2 (single isomer, unassigned) [Compound 305]")
"> 3000 nM"
>>> measurement("CN1CCCC2CCC(C)(C)N2c2nc(-n3ccc(OCCC4(C(F)(F)F)CC4)n3)ccc2C(=O)NS(=O)(=O)c2cccc1n2 (racemic)")
"< 1000 nM"

We next turn to a different molecule, shown below.
Q. Which EC50 value is on record for CC1(C)C[C@@H]2CN1c1nc(-n3ccc(OCCC(C4CC4)C4CC4)n3)ccc1C(=O)NS(=O)(=O)c1cccc(n1)NCCO2 (single isomer, unassigned) [Compound 162] ?
A. 1000 to 3000 nM
